- SYSTEM_UNDER_TEST: T1, mouse CD112R over-expressed on 293T cells (mouse)
- T1 construct: whole, on cells; also called 293T.mCD112R; 293T-mouse CD112R
- ASSAY_METHOD_TEXT: flow cytometry on 293T cells over-expressing mouse CD112R
Decide using 293T-mouse CD112R gMFI (fold increase over isotype) alone. Strictly below 70 fold: 1 (yes). Equal to or above 70 fold: 0 (no).

INSERT INTO measurements (binder, class_name) VALUES
  ('Antibody 33 (antibody, V domains shown, Tested as IgG detected with anti-human IgG Fc, compared with an IgG1 isotype control; also called antibody clone number 33; clone 33) VH: QVQLVQSGAEVKKPGSSVKVSCKASGGTFGNYAISWVRQAPGQGLEWMGGIIPIPGIANYAQKFQGRVTITADESTSTAYMELSSLRSEDTAVYYCARDTGRGYTRHFWFDPWGQGTLVTVSS VL: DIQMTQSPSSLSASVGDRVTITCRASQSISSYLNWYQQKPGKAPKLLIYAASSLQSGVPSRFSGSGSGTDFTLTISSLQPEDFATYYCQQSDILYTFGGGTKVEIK', '0 (no)'),
  ('Antibody 58 (antibody, V domains shown, Tested as IgG detected with anti-human IgG Fc, compared with an IgG1 isotype control; also called antibody clone number 58; clone 58) VH: EVQLVESGGGLVQPGRSLRLSCTASGFTFGDYAMSWFRQAPGKGLEWVGFIGSKFYGGETEYTASVKGRFTISRDGSKSIAYLQMNSLKTEDTAVYYCARGPRRYTYGMDVWGQGTTVTVSS VL: DIQMTQSPSSLSASVGDRVTITCRASQSISSYLNWYQQKPGKAPKLLIYAASSLQSGVPSRFSGSGSGTDFTLTISSLQPEDFATYYCQQSSTPLTFGGGTKVEIK', '0 (no)'),
  ('Antibody 46 (antibody, V domains shown, also called antibody clone number 46; clone 46) VH: EVQLVESGGGLVQPGRSLRLSCTASGFTFGDYAMSWFRQAPGKGLEWVGFIGSKAYGGTTEYTASVKGRFTISRDGSKSIAYLQMNSLKTEDTAVYYCARGPRRYTYGMDVWGQGTTVTVSS VL: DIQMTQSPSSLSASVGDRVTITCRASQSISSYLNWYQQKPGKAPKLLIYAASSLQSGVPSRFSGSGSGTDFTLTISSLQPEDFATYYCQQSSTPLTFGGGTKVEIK', '0 (no)'),
  ('Antibody 34 (antibody, V domains shown, Tested as IgG detected with anti-human IgG Fc, compared with an IgG1 isotype control; also called antibody clone number 34; clone 34) VH: QVQLVQSGAEVKKPGSSVKVSCKASGGTFSSAAISWVRQAPGQGLEWMGGIFPISGHANYAQKFQGRVTITADESTSTAYMELSSLRSEDTAVYYCARDTGRGYTRHFWFDPWGQGTLVTVSS VL: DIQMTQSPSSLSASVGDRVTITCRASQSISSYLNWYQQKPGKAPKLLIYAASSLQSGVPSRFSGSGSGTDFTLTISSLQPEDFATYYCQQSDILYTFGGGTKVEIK', '0 (no)'),
  ('Antibody 36 (antibody, V domains shown, Tested as IgG detected with anti-human IgG Fc, compared with an IgG1 isotype control; also called antibody clone number 36; clone 36) VH: QVQLVQSGAEVKKPGSSVKVSCKASGGTFATYAISWVRQAPGQGLEWMGGIFPLSGTANYAQKFQGRVTITADESTSTAYMELSSLRSEDTAVYYCARDTGRGYTRHFWFDPWGQGTLVTVSS VL: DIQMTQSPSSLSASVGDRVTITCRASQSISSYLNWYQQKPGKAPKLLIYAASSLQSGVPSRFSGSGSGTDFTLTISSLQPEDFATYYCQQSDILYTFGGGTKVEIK', '0 (no)'),
  ('Antibody 32 (antibody, V domains shown, Tested as IgG detected with anti-human IgG Fc, compared with an IgG1 isotype control; Parent of antibodies 33, 34, 35 and 36; also called antibody clone number 32; parent clone 32) VH: QVQLVQSGAEVKKPGSSVKVSCKASGGTFSSYAISWVRQAPGQGLEWMGGIIPISGTANYAQKFQGRVTITADESTSTAYMELSSLRSEDTAVYYCARDTGRGYTRHFWFDPWGQGTLVTVSS VL: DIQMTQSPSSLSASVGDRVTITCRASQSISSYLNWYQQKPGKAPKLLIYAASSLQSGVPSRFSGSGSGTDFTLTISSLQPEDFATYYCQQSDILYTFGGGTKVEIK', '1 (yes)'),
  ('Antibody 35 (antibody, V domains shown, Tested as IgG detected with anti-human IgG Fc, compared with an IgG1 isotype control; also called antibody clone number 35; clone 35) VH: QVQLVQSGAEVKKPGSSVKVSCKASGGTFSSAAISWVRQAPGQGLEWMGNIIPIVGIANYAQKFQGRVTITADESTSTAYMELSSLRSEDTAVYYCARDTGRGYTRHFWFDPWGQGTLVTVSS VL: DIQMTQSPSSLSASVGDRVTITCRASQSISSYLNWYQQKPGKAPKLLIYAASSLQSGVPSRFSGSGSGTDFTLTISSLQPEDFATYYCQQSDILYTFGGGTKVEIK', '1 (yes)');
